# protocolText: Ratio of drug level in brain to plasma in C57BL/6 mouse at 300 umol/kg, po administered as single dose measured after […] by RPLC-MS/MS analysis
# Type: ADME, organism-based
# testSettings: read-out: BPR
measuredProperty: Kp at […]
Write the number on its own, no unit after it.

Inquiry: So what's the measured Kp at […] for this one? "NC1=N[C@](c2ccc(OC(F)F)cc2)(c2cccc(OCCCF)c2)C2=NCC(F)(F)CN12"
Reply text: 0.18

// data source = ChEMBL document CHEMBL1955861
